Tested on: CAOV3
ASSAY NAME: Primary qHTS to identify gynecologic anti-cancer compounds using libraries of approved drugs and bioactive compounds (AID 1345084); note: % is set by controls: 0 for no effect and ±100 for the full control effect; nearly all actives have a fitted effect of over 55% in size
RECORDED CONDITIONS: Gynecologic cancer cell panel viability, ATPlite luminescence, 48 h; series mostly up to 57.5 µM
Source text: National Center for Advancing Translational Sciences [NCATS] Assay Overview: Chemotherapeutic drug responses vary from cancer to cancer and from patient to patient. […] ATPlite is a luminescence based assay reliant on the conversion of a luciferase substrate to light in the presence of ATP. As a cytotoxic compound will suppress growth and decrease the number of cells, the concentration of ATP will decrease, and less light signal will be detected in the well. […]
Records with an inconclusive call do not appear. The source made the active and inactive calls. Calls come from the whole dose curve; as a rule, active = well fitted cell-killing curve with a large enough effect; inconclusive = small, poorly fitted or top-dose-only effect, or effect the other way; inactive = flat fitted curve, though single readings scatter.
PROPERTY NAME: activity change, negative = cytotoxicity

>>> recorded_measurement("CCOC(N)=O")
"inactive"
>>> recorded_measurement("O=C(O)CCC(=O)O")
"inactive"
>>> recorded_measurement("O=C(Cn1ccnc1[N+](=O)[O-])NCCO")
"inactive"
>>> recorded_measurement("CCN1CC(CCN2CCOCC2)C(c2ccccc2)(c2ccccc2)C1=O (configuration not stated)")
"inactive"
>>> recorded_measurement("CCCNC(C)(C)COC(=O)c1ccccc1")
"inactive"
>>> recorded_measurement("N[C@@H](Cc1ccc(O)cc1)C(=O)O")
"-13.2% [at 11.6 µM] (inactive)"
>>> recorded_measurement("CC(=O)N(CC(O)CN(C(C)=O)c1c(I)c(C(=O)NCC(O)CO)c(I)c(C(=O)NCC(O)CO)c1I)c1c(I)c(C(=O)NCC(O)CO)c(I)c(C(=O)NCC(O)CO)c1I (configuration not stated)")
"inactive"

Values were extracted from PubChem BioAssay (NCATS).
